Biological target: Tyrosine-protein kinase FRK (Homo sapiens) (UniProt P42685);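 further: values are mean inhibition of PTK5 (FRK) kinase activity from the GSK PKIS screening set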
Sequence (P42685 whole entry): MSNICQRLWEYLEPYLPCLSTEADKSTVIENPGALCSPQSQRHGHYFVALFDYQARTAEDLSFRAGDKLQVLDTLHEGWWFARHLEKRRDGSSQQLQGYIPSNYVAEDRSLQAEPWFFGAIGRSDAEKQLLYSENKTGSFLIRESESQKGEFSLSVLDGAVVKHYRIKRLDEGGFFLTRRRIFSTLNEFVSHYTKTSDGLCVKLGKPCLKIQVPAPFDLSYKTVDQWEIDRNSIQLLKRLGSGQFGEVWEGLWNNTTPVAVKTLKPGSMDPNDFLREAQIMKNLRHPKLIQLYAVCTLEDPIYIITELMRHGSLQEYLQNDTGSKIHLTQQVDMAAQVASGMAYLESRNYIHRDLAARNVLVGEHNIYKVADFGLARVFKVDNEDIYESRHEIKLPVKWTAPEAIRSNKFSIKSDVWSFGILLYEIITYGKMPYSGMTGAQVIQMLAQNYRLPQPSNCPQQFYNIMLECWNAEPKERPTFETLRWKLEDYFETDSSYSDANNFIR
Details: at 0.1 µM
Recorded inhibition values for a group of compounds are listed next.
Response body: numeric value in %, unit text excluded.

Previously resolved entries follow.
NS(=O)(=O)c1ccc(N/N=C2\C(=O)Nc3cccc(CCc4ccncc4)c32)cc1 | -0.74
Fc1cccc(COc2ccc(Nc3ncncc3C#Cc3ccccc3)cc2Cl)c1 | 1.23
NS(=O)(=O)c1cccc(N/C=C2\C(=O)Nc3ccccc32)c1 | 3.47
COc1cc(N2CCN(C(C)C)CC2)ccc1Nc1nc(Nc2cccc(F)c2C(=O)O)c2cc[nH]c2n1 | 4.04

Now let's try a different one.
Item: OCCCNc1nccc(-c2c(-c3ccc(F)cc3)nn3cc(C(F)(F)F)ccc23)n1 | System: Tyrosine-protein kinase FRK (Homo sapiens) (UniProt P42685) | inhibition: 0.71

====

Molecular target: Serine/threonine-protein kinase TBK1 (Homo sapiens) (UniProt Q9UHD2);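 further: values are the mean TBK1 inhibition, taken from the GSK PKIS screening data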
Sequence (whole entry): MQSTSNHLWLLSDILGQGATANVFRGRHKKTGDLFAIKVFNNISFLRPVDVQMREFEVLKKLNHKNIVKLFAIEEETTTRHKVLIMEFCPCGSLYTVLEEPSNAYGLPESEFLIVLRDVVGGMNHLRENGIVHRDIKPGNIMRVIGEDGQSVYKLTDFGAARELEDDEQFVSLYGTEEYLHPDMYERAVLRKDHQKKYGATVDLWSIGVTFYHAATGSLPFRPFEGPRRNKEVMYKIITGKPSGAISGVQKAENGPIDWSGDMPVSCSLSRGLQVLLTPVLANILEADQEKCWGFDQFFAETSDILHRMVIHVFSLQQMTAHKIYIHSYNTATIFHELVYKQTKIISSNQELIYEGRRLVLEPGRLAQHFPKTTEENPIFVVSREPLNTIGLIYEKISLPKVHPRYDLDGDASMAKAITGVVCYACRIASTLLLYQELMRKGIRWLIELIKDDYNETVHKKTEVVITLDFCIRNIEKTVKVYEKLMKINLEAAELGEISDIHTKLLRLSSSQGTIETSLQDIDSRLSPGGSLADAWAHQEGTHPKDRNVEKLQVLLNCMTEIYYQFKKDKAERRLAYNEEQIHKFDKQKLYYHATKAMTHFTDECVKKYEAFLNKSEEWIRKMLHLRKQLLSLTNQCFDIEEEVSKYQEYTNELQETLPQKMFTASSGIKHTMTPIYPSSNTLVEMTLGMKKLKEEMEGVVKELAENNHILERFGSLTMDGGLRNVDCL
Conditions: at 0.1 µM
Recorded inhibition values for a group of compounds are listed next.
Response body: numeric value in %, unit text excluded.

COc1c(C(N)=O)cc(-c2ccc(Cl)cc2)cc1-c1ccc(S(N)(=O)=O)cc1 | 4.69
O=C(O[C@H]1CN[C@H](C#Cc2cc3ncnc(Nc4ccc5c(ccn5Cc5cc(F)ccc5F)c4)c3s2)C1)N1CCOCC1 | 2.75
CC1(C)CC(n2cnc(-c3ccc(F)cc3)c2-c2ccnc(N)n2)CC(C)(C)N1 | 0.42

Entry CCOc1ccc2c(-c3ccnc(Nc4cc(OC)cc(C(F)(F)F)c4)n3)cnn2n1 ; inhibition = -0.57

Entry CN(c1ccc(NC(=O)NCCN2CCOCC2)cc1)c1ccnc(Nc2ccc(CS(C)(=O)=O)cc2)n1 ; inhibition = 1.55

Entry COc1ccc2ncn(-c3cc(O[C@H](C)c4ccccc4C(F)(F)F)c(C(N)=O)s3)c2c1 ; inhibition = 1.28

Entry CNC(=O)c1sc(-n2cnc3cc(OC)c(OC)cc32)cc1OCc1ccccc1C(F)(F)F ; inhibition = 1.68

Entry Cc1cc(O)cc(C)c1/C=C/c1cncc(C(=O)OC(C)(C)C)c1 ; inhibition = 2.04

Entry CCS(=O)(=O)c1ccc(OC)c(Nc2ncc(-c3cccc(C(C)=O)c3)o2)c1 ; inhibition = 0.54
